- Tested on: Phakopsora pachyrhizi
- Measurement Description: Asian soybean rust (PHAKPA) disease control
- Format: in vivo
- Measurement Context: topical, 24 h, 1 Day Protectant, high volume, read-out: Disease Control PHAKPA 1DP
Measured Parameter: pest or weed control at 25 ppm

> print(dat)
                            chemical.string  recorded.value
1  COc1ccnc(C(=O)N[C@H]2CCC[C@H](Oc3ccccc3)[C@@H](OCC(C)C)[C@H](C)OC2=O)c1OCOC(C)=O      80 to 100%
2  COc1ccnc(C(=O)N[C@H]2CCC[C@H](OCC(C)C)[C@@H](OCCCC(F)(F)F)[C@H](C)OC2=O)c1OCOC(C)=O      80 to 100%
3  COc1ccnc(C(=O)N[C@H]2CCC[C@H](OCCCC(F)(F)F)[C@@H](OC3CCCC3)[C@H](C)OC2=O)c1OCOC(C)=O      80 to 100%
4  COc1ccnc(C(=O)N[C@H]2CCC[C@H](OCC(C)C)[C@@H](OCC(C)C)[C@H](C)OC2=O)c1OCOC(C)=O      80 to 100%
5  CCCO[C@H]1[C@H](C)OC(=O)[C@@H](NC(=O)c2nccc(OC)c2OC(C)=O)CCC[C@@H]1OCC(C)C            < 0%

----------
- Tested on: Mycosphaerella graminicola; Anamorph: Septoria tritici
- Measurement Description: Leaf blotch of wheat (SEPTTR) disease control on wheat seedlings
- Type: in vivo
- Measurement Context: Zymoseptoria tritici, 72 h; Wheat Leaf Blotch; 3 Day Curative; low volume application, 121.5 g/H; read-out: Disease Control SEPTTR 3 DC 121.5 g/H
Measured Parameter: pest or weed control at 121.5 g/ha

> print(dat)
                            chemical.string                  measured.parameter  recorded.value
1  CCCO[C@H]1CCC[C@H](NC(=O)c2nccc(OC)c2OC(C)=O)C(=O)O[C@@H](C)[C@@H]1Oc1ccc(-c2ccccc2)cc1  pest or weed control at 121.5 g/ha      80 to 100%
2  C=C(C)CO[C@H]1CCC[C@H](NC(=O)c2nccc(OC)c2OCOC(C)=O)C(=O)O[C@@H](C)[C@@H]1OC  pest or weed control at 121.5 g/ha        0 to 80%
3  COc1ccnc(C(=O)N[C@H]2CCC[C@H](Oc3ccccc3)[C@@H](OC(=O)C3CC3)[C@H](C)OC2=O)c1OC(C)=O  pest or weed control at 121.5 g/ha        0 to 80%
4  COCCC(=O)Oc1c(OC)ccnc1C(=O)N[C@H]1CCC[C@H](OCC(C)C)[C@@H](OC)[C@H](C)OC1=O  pest or weed control at 121.5 g/ha      80 to 100%
5  COc1ccnc(C(=O)N[C@H]2CCC[C@H](Oc3ccccc3)[C@@H](OC(=O)C3CCCC3)[C@H](C)OC2=O)c1OC(=O)C1CC1  pest or weed control at 121.5 g/ha        0 to 80%
6  C=C(C)CO[C@H]1CCC[C@H](NC(=O)c2nccc(OC)c2OCOC(=O)C(C)C)C(=O)O[C@@H](C)[C@@H]1OC  pest or weed control at 121.5 g/ha            < 0%
7  COc1ccnc(C(=O)N[C@H]2CCC[C@H](Oc3ccccc3)[C@@H](OC(=O)C3CCCC3)[C@H](C)OC2=O)c1OCOC(=O)C(C)C  pest or weed control at 121.5 g/ha            < 0%
